measured_target: estrogen receptor (Homo sapiens, UniProt P03372)
Construct: since the MCF-7 cells express estrogen receptors; endogenous in cells
Sequence (P03372 whole entry): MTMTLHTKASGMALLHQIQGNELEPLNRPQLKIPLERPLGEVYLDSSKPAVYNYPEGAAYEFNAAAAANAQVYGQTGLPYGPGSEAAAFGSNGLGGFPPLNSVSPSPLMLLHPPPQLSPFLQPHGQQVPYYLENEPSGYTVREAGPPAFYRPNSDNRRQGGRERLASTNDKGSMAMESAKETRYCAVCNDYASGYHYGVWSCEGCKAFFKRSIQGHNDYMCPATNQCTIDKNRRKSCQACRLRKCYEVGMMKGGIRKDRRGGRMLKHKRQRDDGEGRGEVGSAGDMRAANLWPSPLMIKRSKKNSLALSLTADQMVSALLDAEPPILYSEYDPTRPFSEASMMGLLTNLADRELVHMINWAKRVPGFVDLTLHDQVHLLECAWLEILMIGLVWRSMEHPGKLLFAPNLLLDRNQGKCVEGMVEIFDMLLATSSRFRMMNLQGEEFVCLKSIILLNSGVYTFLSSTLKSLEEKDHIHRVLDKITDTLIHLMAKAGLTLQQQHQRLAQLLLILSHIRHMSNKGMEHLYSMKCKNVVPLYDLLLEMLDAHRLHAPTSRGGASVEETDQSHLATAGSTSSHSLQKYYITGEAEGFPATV
assay_notes: MCF-7 ERE-tk-luciferase test procedure, antagonist mode
condition_info: co-dosed with 10 pM 17β-estradiol, MCF-7 cells infected with adenovirus 5-ERE-tk-luciferase, treated 24 h
pIC50: −log10 of the molar value. Counter-ions that a name gives are not always drawn.
metric_name: pIC50

{"columns": ["molecule", "result"],
 "data": [
  ["Cc1c(-c2ccc(O)cc2)n(Cc2ccc(OCCN3CCCCC3)cc2)c2ccc(O[C@@H]3O[C@H](C(=O)O)[C@@H](O)[C@H](O)[C@H]3O)cc12", 6.64],
  ["Cc1c(-c2ccc(O[C@@H]3O[C@H](C(=O)O)[C@@H](O)[C@H](O)[C@H]3O)cc2)n(Cc2ccc(OCCN3CCCCC3)cc2)c2ccc(O)cc12 [Compound 37, Ammonium Salt]", 5.92]
]}

Hello, the source for this data is patent US6380166B1, in case you need it.
